Values from patent US7994209B2

assayed_target: hNET (Homo sapiens, UniProt P23975)
Sequence (P23975 whole entry): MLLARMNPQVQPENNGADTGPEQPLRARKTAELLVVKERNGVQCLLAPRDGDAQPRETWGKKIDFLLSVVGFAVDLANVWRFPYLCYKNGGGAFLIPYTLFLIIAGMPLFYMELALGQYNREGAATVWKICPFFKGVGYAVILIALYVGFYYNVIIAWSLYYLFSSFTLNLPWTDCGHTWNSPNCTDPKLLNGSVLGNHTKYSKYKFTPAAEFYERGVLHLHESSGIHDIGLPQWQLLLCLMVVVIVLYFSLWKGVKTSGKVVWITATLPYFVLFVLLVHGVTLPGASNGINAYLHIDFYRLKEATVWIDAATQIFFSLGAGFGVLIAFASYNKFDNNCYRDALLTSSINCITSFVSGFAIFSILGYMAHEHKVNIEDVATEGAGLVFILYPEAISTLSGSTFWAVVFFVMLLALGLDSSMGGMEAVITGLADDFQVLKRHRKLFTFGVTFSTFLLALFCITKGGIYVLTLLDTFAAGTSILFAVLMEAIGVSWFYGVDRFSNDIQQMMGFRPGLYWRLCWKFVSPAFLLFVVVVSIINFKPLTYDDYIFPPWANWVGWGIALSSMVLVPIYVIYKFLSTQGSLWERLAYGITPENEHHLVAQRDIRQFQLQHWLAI
pKi: −log10 of the molar value.
property_name: pKi

Worked cases, pKi given:
| compound | pKi |
| --- | --- |
| Clc1ccc(O[C@H](C2CC2)[C@H]2CCNC2)c(Cl)c1 [Example 16-20] | ≥ 7.00 |
| Cc1ccc(O[C@@H](C2CC2)[C@H]2CCNC2)c(Br)c1 [Example 16-25] | ≥ 8.00 |
| CC(C)C(Oc1cccc(C(F)(F)F)c1)C1CCNC1 (stereo not drawn) [Example 6-72] | ≥ 7.00 |
| CCC[C@@H](Oc1cccc(Cl)c1C(F)(F)F)[C@@H]1CCNC1 [Example 4-71] | ≥ 8.00 |
| COc1ccc(F)cc1O[C@@H](CC(C)C)[C@H]1CCNC1 [Example 10-50] | ≥ 8.00 |

Specify reported pKi for the compound shown: CC[C@H](Oc1cccc(C(F)(F)F)c1)[C@H]1CCNC1 [Example 2-16]
≥ 7.00

Specify reported pKi for the compound shown: Fc1cc(O[C@H](C2CC2)[C@H]2CCNC2)ccc1Cl [Example 16-91]
≥ 8.00

Specify reported pKi for the compound shown: Cc1ccc(O[C@@H](C2CC2)[C@H]2CCNC2)c(C)c1 [Example 16-28]
≥ 8.00

Specify reported pKi for the compound shown: CCC[C@@H](Oc1ccc(Cl)cc1Cl)[C@H]1CCNC1 [Example 4-29]
≥ 7.00

Specify reported pKi for the compound shown: Clc1cccc(O[C@@H](C2CC2)[C@H]2CCNC2)c1Cl [Example 16-8]
≥ 8.00

Specify reported pKi for the compound shown: CC(C)CC(Oc1c(F)ccc(Cl)c1F)C1CCNC1 (stereo not drawn) [Example 10-59]
≥ 8.00

Specify reported pKi for the compound shown: Cc1cc(Cl)ccc1O[C@H](C1CC1)[C@@H]1CCNC1 [Example 16-32]
≥ 7.00

Specify reported pKi for the compound shown: CC(C)CC(Oc1cccc(Cl)c1C(F)(F)F)C1CCNC1 (stereo not drawn) [Example 10-35]
≥ 8.00

Specify reported pKi for the compound shown: CC(C)C[C@@H](Oc1ccc(C(F)(F)F)cc1)[C@H]1CCNC1 [Example 10-17]
≥ 7.00

Specify reported pKi for the compound shown: Fc1cc(Cl)cc(O[C@H](C2CC2)[C@H]2CCNC2)c1 [Example 16-99]
≥ 8.00

Specify reported pKi for the compound shown: CCC[C@H](Oc1cccc2ccccc12)[C@H]1CCNC1 [Example 14-3]
≥ 8.00

Specify reported pKi for the compound shown: Cc1cc(Cl)ccc1O[C@H](C(C)C)[C@H]1CCNC1 [Example 6-44]
≥ 7.00

Specify reported pKi for the compound shown: CC[C@H](Oc1c(F)ccc(Cl)c1F)[C@H]1CCNC1 [Example 2-52]
≥ 8.00

Specify reported pKi for the compound shown: CCCC[C@@H](Oc1ccc(Cl)cc1)[C@H]1CCNC1 [Example 8-4]
≥ 8.00

Specify reported pKi for the compound shown: COc1cc(Cl)ccc1O[C@@H](CC(C)C)[C@H]1CCNC1 [Example 10-49]
≥ 8.00

Specify reported pKi for the compound shown: CC[C@H](Oc1ccc(F)c(Cl)c1)[C@H]1CCNC1 [Example 2-21]
≥ 8.00

###

Entries with their measured pKi, system hNET (Homo sapiens):
pKi: −log10 of the molar value.

| compound | assayed_target | pKi |
| --- | --- | --- |
| CC[C@H](Oc1ccc(F)cc1OC)[C@H]1CCNC1 | hNET (Homo sapiens) | ≥ 8.00 |

Give hNET (Homo sapiens) pKi for the following compound: CC(C)CC(Oc1ccc(C(F)(F)F)cc1)C1CCNC1 (centres unmarked)
≥ 8.00

Give hNET (Homo sapiens) pKi for the following compound: Cc1cc(O[C@@H](C2CC2)[C@H]2CCNC2)c(Cl)c(C)c1Cl
≥ 7.00

Give hNET (Homo sapiens) pKi for the following compound: Fc1ccccc1O[C@H](C1CCCCC1)[C@H]1CCNC1
≥ 8.00

Give hNET (Homo sapiens) pKi for the following compound: CC(C)C(Oc1ccc(Cl)cc1C(F)(F)F)C1CCNC1 (centres unmarked)
≥ 8.00

Give hNET (Homo sapiens) pKi for the following compound: CC(C)C[C@H](Oc1cc(Cl)cc(Cl)c1)[C@H]1CCNC1
≥ 8.00

Give hNET (Homo sapiens) pKi for the following compound: CC[C@@H](Oc1cc(Cl)cc(Cl)c1)[C@@H]1CCNC1
≥ 8.00

Give hNET (Homo sapiens) pKi for the following compound: Clc1cccc(O[C@H](C2CC2)[C@H]2CCNC2)c1
≥ 8.00

Give hNET (Homo sapiens) pKi for the following compound: CC[C@H](Oc1ccc(Cl)cc1C)[C@H]1CCNC1
≥ 8.00

Give hNET (Homo sapiens) pKi for the following compound: COc1ccc(F)c(O[C@H](C2CC2)[C@H]2CCNC2)c1Cl
≥ 8.00

Give hNET (Homo sapiens) pKi for the following compound: CC[C@H](Oc1cccc(Cl)c1)[C@H]1CCNC1
≥ 8.00

Give hNET (Homo sapiens) pKi for the following compound: CC(C)C(Oc1cccc(Cl)c1Cl)C1CCNC1 (centres unmarked)
≥ 8.00

Give hNET (Homo sapiens) pKi for the following compound: CCC[C@H](Oc1ccc(Cl)cc1C)[C@@H]1CCNC1
≥ 8.00

Give hNET (Homo sapiens) pKi for the following compound: CC(C)[C@H](Oc1ccccc1F)[C@H]1CCNC1
≥ 8.00

Give hNET (Homo sapiens) pKi for the following compound: CC(C)[C@@H](Oc1cccc(F)c1Cl)[C@H]1CCNC1
≥ 7.00

Give hNET (Homo sapiens) pKi for the following compound: CC(C)[C@@H](Oc1ccc(Cl)cc1Cl)[C@H]1CCNC1
≥ 7.00

Give hNET (Homo sapiens) pKi for the following compound: CCC[C@H](Oc1c(Cl)cccc1Cl)[C@@H]1CCNC1
≥ 7.00

Give hNET (Homo sapiens) pKi for the following compound: CC[C@H](Oc1c(F)ccc(F)c1Cl)[C@H]1CCNC1
≥ 8.00

Give hNET (Homo sapiens) pKi for the following compound: Cc1cc(Cl)ccc1O[C@H](CC(C)C)[C@H]1CCNC1
≥ 8.00

Give hNET (Homo sapiens) pKi for the following compound: CC[C@H](Oc1ccc(F)cc1)[C@H]1CCNC1
≥ 7.00

Give hNET (Homo sapiens) pKi for the following compound: CC[C@H](Oc1cccc(Cl)c1Cl)[C@H]1CCNC1
≥ 8.00

Give hNET (Homo sapiens) pKi for the following compound: CCC[C@@H](Oc1cccc(Cl)c1Cl)[C@@H]1CCNC1
≥ 8.00

Give hNET (Homo sapiens) pKi for the following compound: Cc1cc(Cl)ccc1O[C@H](C1CC1)[C@H]1CCNC1
≥ 7.00

Give hNET (Homo sapiens) pKi for the following compound: C=CC[C@H](Oc1ccc(Cl)cc1)[C@H]1CCNC1
≥ 8.00

Give hNET (Homo sapiens) pKi for the following compound: CC(C)C[C@H](Oc1c(Cl)ccc(Cl)c1F)[C@H]1CCNC1
≥ 8.00

Give hNET (Homo sapiens) pKi for the following compound: CC(C)[C@H](Oc1ccc(Cl)cc1C(F)(F)F)[C@H]1CCNC1
≥ 8.00
